Attribution: ChEMBL document CHEMBL1155476

study.system: UniProtKB P08588
protocol: Displacement of [125I]cyanopindolol from human adrenergic beta-1 receptor expressed in CHOK1 cells
Format: cell-based, CHO-K1
assay.setup: read-out: Ki
pKi: −log10 of the molar value.
Output rule met for pKi not less than 7; output rule not met otherwise.

Worked cases, answers included:
>>> class_label("OC(COc1cccc2[nH]c3ccccc3c12)CN1CCC(Cc2cccnc2)CC1 (stereo not given)")
"rule met"
>>> class_label("COc1ccc(OCC(O)CN2CCC(CN3C(=O)c4cccc5cccc(c45)C3=O)CC2)c(C(C)(C)C)c1 (stereo not given)")
"rule not met"
>>> class_label("O=C1c2cccc3cccc(c23)C(=O)N1CC1CCN(CC(O)COc2ccc3[nH]ccc3c2)CC1 (stereo not given)")
"rule not met"
>>> class_label("CC(C)c1ccccc1OCC(O)CN1CCN(CCN2C(=O)c3cccc4cccc(c34)C2=O)CC1 (stereo not given)")
"rule not met"
>>> class_label("O=C(c1ccc(F)cc1)C1CCN(CC(O)COc2cccc3[nH]c4ccccc4c23)CC1 (stereo not given)")
"rule met"

Does pKi meet or surpass 7 for CC(C)c1ccccc1OCC(O)CN1CCC(CN2C(=O)c3ccccc3C2=O)CC1 (stereo not given) ?
rule not met

hey, is pKi for this one >= 7? COc1cc2c3c(cccc3c1)C(=O)N(CC1CCN(CC(O)COc3cccc4[nH]c5ccccc5c34)CC1)C2=O (stereo not given)
rule met

# bool: pKi of O=C1c2cccc3cccc(c23)C(=O)N1CC1CCN(CC(O)COc2cccc3[nH]c4ccccc4c23)CC1 (stereo not given) >= 7
rule met

Reported pKi reaches at least 7 for CC(C)c1ccccc1OCC(O)CN1CCC(CN2C(=O)c3cccc4cccc(c34)C2=O)CC1 (stereo not given) ?
rule not met

Is pKi at least 7? Consider C=CCc1ccccc1OCC(O)CNC1CCN(C)CC1 (stereo not given)
rule not met

Determine whether measured pKi meets or exceeds 7 for C=CCc1ccc(OCC(O)CN2CCC(CN3C(=O)c4cccc5cccc(c45)C3=O)CC2)c(OC)c1 (stereo not given)
rule not met

====

Consider the following compounds and their measured Ki readings.
study.system: Beta-3 adrenergic receptor (Homo sapiens, UniProt P13945)
Sequence (P13945 whole entry): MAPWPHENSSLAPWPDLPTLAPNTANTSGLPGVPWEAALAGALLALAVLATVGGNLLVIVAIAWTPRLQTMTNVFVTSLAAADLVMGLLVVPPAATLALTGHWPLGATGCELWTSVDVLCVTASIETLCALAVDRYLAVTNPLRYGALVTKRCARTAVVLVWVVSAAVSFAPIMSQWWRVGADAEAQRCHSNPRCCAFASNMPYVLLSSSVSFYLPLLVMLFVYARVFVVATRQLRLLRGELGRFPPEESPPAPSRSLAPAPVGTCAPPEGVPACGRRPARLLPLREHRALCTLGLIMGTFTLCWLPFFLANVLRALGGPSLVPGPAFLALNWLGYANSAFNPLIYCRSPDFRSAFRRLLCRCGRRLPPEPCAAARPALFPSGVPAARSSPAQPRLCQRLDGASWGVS
Give the quantity in µM, number only.

>>> measured_number("CC(C)c1ccccc1OCC(O)CN1CCOCC1 (stereo not given)")
1.77
>>> measured_number("O=C1c2cccc3cccc(c23)C(=O)N1C1CCN(CC(O)COc2cccc3[nH]c4ccccc4c23)CC1 (stereo not given)")
0.098
>>> measured_number("CC(C)c1ccccc1OCC(O)CN1CCC(CN2C(=O)c3ccccc3C2=O)CC1 (stereo not given)")
1.48

Measured Ki (Beta-3 adrenergic receptor (Homo sapiens, UniProt P13945)), entry C=CCc1ccccc1OCC(O)CN1CCC(CN2C(=O)c3cccc4cccc(c34)C2=O)CC1 (stereo not given) : 0.409

Record COc1ccc(C(=O)C2CCN(CC(O)COc3cccc4[nH]c5ccccc5c34)CC2)cc1 (stereo not given) has Beta-3 adrenergic receptor (Homo sapiens, UniProt P13945) Ki equal to 9.18

====

protocol: Cytotoxicity against human PBMC cells
Format: cell-based
assay.setup: read-out: ED50 (the source's name)
property.label: CC50 (µM)
API: value field is a number in µM; no unit string.

response.value for O=C(c1ccc(F)cc1)C1CCN(CC(O)COc2cccc3[nH]c4ccccc4c23)CC1 (stereo unspecified) (field: CC50) = 9

====

study.system: Beta-1 adrenergic receptor (Homo sapiens)
Sequence (P08588 whole entry): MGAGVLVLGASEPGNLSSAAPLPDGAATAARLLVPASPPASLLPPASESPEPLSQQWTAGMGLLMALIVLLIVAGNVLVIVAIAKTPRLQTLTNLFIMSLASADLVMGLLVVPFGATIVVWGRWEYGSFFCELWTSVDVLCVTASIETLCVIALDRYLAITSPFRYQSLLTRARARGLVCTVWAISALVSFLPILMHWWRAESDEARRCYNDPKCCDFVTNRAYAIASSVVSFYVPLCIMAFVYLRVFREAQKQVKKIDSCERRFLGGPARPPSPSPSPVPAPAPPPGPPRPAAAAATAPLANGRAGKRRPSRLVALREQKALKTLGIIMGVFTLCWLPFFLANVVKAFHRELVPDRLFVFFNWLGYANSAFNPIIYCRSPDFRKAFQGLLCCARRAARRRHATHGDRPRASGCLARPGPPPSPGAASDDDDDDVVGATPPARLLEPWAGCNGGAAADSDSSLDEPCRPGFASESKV
protocol: Displacement of [125I]cyanopindolol from human adrenergic beta-1 receptor expressed in CHOK1 cells
Format: cell-based, CHO-K1
assay.setup: read-out: Ki
property.label: pKi
Notebook: values listed as pKi are -log10 of the concentration (mol/L).

Some solved entries appear below for comparison.
>>> measured_number("C=CCc1ccccc1OCC(O)CN1CCOCC1 (centres undefined)")
6.94
>>> measured_number("CC(C)c1ccccc1OCC(O)CNC1CCN(C)CC1 (centres undefined)")
7.05
>>> measured_number("C=CCc1ccccc1OCC(O)CN1CCC(CN2C(=O)CCCC2=O)CC1 (centres undefined)")
6.36

// sample COc1ccc(CC2CCN(CC(O)COc3cccc4[nH]c5ccccc5c34)CC2)cc1 (centres undefined) , its pKi was 8.47

C=CCc1ccccc1OCC(O)CN1CCC(CN2C(=O)c3cccc4cc(O)cc(c34)C2=O)CC1 (centres undefined) yielded pKi of 6.77

Data point: CC(C)c1ccccc1OCC(O)CN1CCC(N2C(=O)c3cccc4cccc(c34)C2=O)CC1 (centres undefined) ; pKi = 6.62

Lab note: measured pKi of C=CCc1ccccc1OCC(O)CN1CCC(N2C(=O)c3cccc4cccc(c34)C2=O)CC1 (centres undefined) was 5.98

Lab book: pKi of CC(C)c1ccccc1OCC(O)CN1CCC(CN2C(=O)CCCC2=O)CC1 (centres undefined) noted as 6.61

Cc1ccc(C(C)C)c(OCC(O)CN2CCC(CN3C(=O)c4cccc5cccc(c45)C3=O)CC2)c1 (centres undefined) has a reported pKi of 6.00
